Origin of the recorded values: patent US20250188079A1

# ASSAY_SYSTEM: CBP (Homo sapiens (Human), UniProt Q92793)
# Sequence (Q92793 1085-1192): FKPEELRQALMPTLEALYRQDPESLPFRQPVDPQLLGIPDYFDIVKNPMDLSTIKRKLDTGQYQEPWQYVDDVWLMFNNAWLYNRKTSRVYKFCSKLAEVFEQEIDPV
# PROTOCOL: HTRF biochemical assay for CBP activity (TR-FRET, bromodomain)
# Type: binding
# CONDITION_DETAILS: geometric mean, 10-point 3-fold dilution 33 μM to 1.7 nM, read-out: BROMO IC50 TRF TB CBP (μM gmean)
Kindly supply the reported IC50 values for the records listed here.

Req: Entry COC(=O)N1CCc2ccc3c(nc([C@H]4CC[C@H](C(=O)O)CC4)n3[C@@H](C)CC3CCCCC3)c2C1 [Compound 200] : reported IC50 = ?
Resp: 0.01 to 0.1 µM

Req: Entry COC(=O)N1CCc2ccc3c(nc(C4CCCCC4)n3CCc3cccc(C(=O)O)c3)c2C1 [Compound 105] : reported IC50 = ?
Resp: 0.001 to 0.01 µM

Req: Entry COC(=O)N1CCc2ccc3c(nc(-c4ccc(C(=O)O)c(OC)c4)n3[C@@H](C)Cc3ccccc3)c2C1 [Compound 208] : reported IC50 = ?
Resp: 0.01 to 0.1 µM

Req: Entry COC(=O)N1CCc2ccc3c(nc([C@H]4CC[C@H](C(=O)O)CC4)n3[C@@H](C)Cc3cccc(F)c3F)c2C1 [Compound 71] : reported IC50 = ?
Resp: 0.001 to 0.01 µM

Req: Entry COC(=O)N1CCc2ccc3c(nc([C@H]4CC[C@H](C(=O)O)CC4)n3[C@H](C)Cc3ccccc3F)c2C1 [Compound 51] : reported IC50 = ?
Resp: 0.001 to 0.01 µM

Req: Entry COC(=O)N1CCc2ccc3c(nc(C4CCCCC4)n3C[C@@H]3CCCC[C@H]3C(=O)O)c2C1 [Compound 227] : reported IC50 = ?
Resp: 0.01 to 0.1 µM

Req: Entry COC(=O)N1CCc2ccc3c(nc([C@@H]4CCC[C@@H](C(=O)O)C4)n3[C@H](C)Cc3ccccc3Cl)c2C1 (single isomer, unassigned) [Compound 263] : reported IC50 = ?
Resp: 0.01 to 0.1 µM

Req: Entry COC(=O)N1CCc2ccc3c(nc(C4CCCCC4)n3C[C@@H](CC(=O)O)c3ccc(F)c(F)c3)c2C1 [Compound 21] : reported IC50 = ?
Resp: 0.001 to 0.01 µM

Req: Entry COC(=O)N1CCc2ccc3c(nc(C4CCCCC4)n3[C@@H](CC(=O)O)c3ccccc3)c2C1 [Compound 213] : reported IC50 = ?
Resp: 0.01 to 0.1 µM

Req: Entry COC(=O)N1CCc2ccc3c(nc(C4CCCC4)n3C[C@H](CC(=O)O)c3ccccc3)c2C1 (single isomer, unassigned) [Compound 174] : reported IC50 = ?
Resp: 0.01 to 0.1 µM

Req: Entry COC(=O)N1CCc2c(C(=O)O)cc3c(nc(C4CCCCC4)n3CCc3ccccc3)c2C1 [Compound 149] : reported IC50 = ?
Resp: 0.001 to 0.01 µM

Req: Entry COC(=O)N1CCc2ccc3c(nc([C@H]4CC[C@H](C(=O)O)CC4)n3C[C@H](OC)c3ccccc3)c2C1 [Compound 191] : reported IC50 = ?
Resp: 0.01 to 0.1 µM

Req: Entry COC(=O)N1CCc2ccc3c(nc(C4CCN(C(C)=O)CC4)n3[C@@H](C)Cc3ccccc3)c2C1 [Compound 323] : reported IC50 = ?
Resp: 0.1 to 1 µM

Req: Entry COC(=O)N1CCc2ccc3c(nc(N4CCNCC4)n3[C@H](C)Cc3ccccc3)c2C1 [Compound 347] : reported IC50 = ?
Resp: 1 to 1000 µM

Req: Entry COC(=O)N1CCc2ccc3c(nc(C4CCCCC4)n3C[C@H](CC(=O)O)c3cc(F)cc(OC)c3)c2C1 [Compound 36] : reported IC50 = ?
Resp: 0.001 to 0.01 µM

Req: Entry COC(=O)N1CCc2ccc3c(nc([C@H]4CC[C@H](C(=O)O)CC4)n3[C@@H](C)C[C@]3(C)CC[C@H](OC)CC3)c2C1 [Compound 57] : reported IC50 = ?
Resp: 0.001 to 0.01 µM

Req: Entry COC(=O)N1CCc2ccc3c(nc([C@H]4CC[C@](C)(C(=O)O)CC4)n3[C@@H](CO)Cc3ccccc3)c2C1 [Compound 270] : reported IC50 = ?
Resp: 0.01 to 0.1 µM

Req: Entry COC(=O)N1CCc2ccc3c(nc([C@H]4CCC[C@H](C(=O)O)C4)n3C[C@H]3CC[C@@H](OC)CC3)c2C1 [Compound 245] : reported IC50 = ?
Resp: 0.01 to 0.1 µM

Req: Entry COC(=O)N1CCc2ccc3c(nc([C@H]4CC[C@H](C(=O)O)CC4)n3Cc3ccc(OC(F)F)cc3)c2C1 [Compound 171] : reported IC50 = ?
Resp: 0.001 to 0.01 µM

Req: Entry COC(=O)N1CCc2ccc3c(nc(C4CCCCC4)n3C[C@@H](O)c3cccc(C(=O)O)c3)c2C1 [Compound 199] : reported IC50 = ?
Resp: 0.01 to 0.1 µM

Req: Entry COC(=O)N1CCc2ccc3c(nc([C@H]4CC[C@@H](OC)CC4)n3C[C@H](C(=O)O)c3ccccc3)c2C1 [Compound 250] : reported IC50 = ?
Resp: 0.01 to 0.1 µM

Req: Entry COC(=O)N1CCc2ccc3c(nc(N4CCN(C(=O)O)CC4)n3[C@H](C)Cc3ccccc3)c2C1 [Compound 54] : reported IC50 = ?
Resp: 0.001 to 0.01 µM

Req: Entry COC(=O)N1CCc2ccc3c(nc(C4CCCCC4)n3[C@@H](CO)Cc3cccc(C(=O)O)c3)c2C1 [Compound 152] : reported IC50 = ?
Resp: 0.001 to 0.01 µM

Req: Entry COC(=O)N1CCc2ccc3c(nc([C@H]4CCC[C@H](C(=O)O)C4)n3Cc3cncc(Cl)n3)c2C1 [Compound 254] : reported IC50 = ?
Resp: 0.01 to 0.1 µM
